assay: plasma concentration in rats after intravenous administration; type: in vivo; conditions: plasma, iv; rat, i.v. 1 mg/kg, 5 min
quantity: concentration at 5 min (µg/mL)
Lab book: enter the figure in µg/mL, no units written.

compound	quantity	unit label	value measured
CS(=O)(=O)N1CCN(C(=O)[C@H](Cc2cccc(C(=N)N)c2)NS(=O)(=O)c2ccc3ccccc3c2)CC1.Cl	concentration at 5 min	µg/mL	0.879

Prompt: Entry under review: CC(=O)N1CCN(C(=O)C(Cc2cccc(C(=N)N)c2)NS(=O)(=O)c2ccc3ccccc3c2)CC1 (stereo not drawn) . Reported concentration at 5 min?
Response: 1.06

Prompt: Would you mind telling me what concentration at 5 min value was observed for CCOC(=O)N1CCN(C(=O)C(Cc2cccc(C(=N)N)c2)NS(=O)(=O)c2ccc3ccccc3c2)CC1 (racemic) [X, reference compound] ?
Response: 0.812
